Biological target: p38α (Homo sapiens, UniProt Q16539)
Sequence (Q16539 whole entry): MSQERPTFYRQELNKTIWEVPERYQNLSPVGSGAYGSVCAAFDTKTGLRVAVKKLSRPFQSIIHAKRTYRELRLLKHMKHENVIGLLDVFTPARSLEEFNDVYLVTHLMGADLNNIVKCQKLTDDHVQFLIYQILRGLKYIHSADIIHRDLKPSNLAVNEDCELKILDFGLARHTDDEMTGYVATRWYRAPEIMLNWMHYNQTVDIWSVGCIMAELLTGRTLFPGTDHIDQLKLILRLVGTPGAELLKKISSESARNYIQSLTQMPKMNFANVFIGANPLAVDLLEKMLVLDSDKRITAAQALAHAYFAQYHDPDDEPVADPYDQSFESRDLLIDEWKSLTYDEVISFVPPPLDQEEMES
Assay: p38α inhibition IC50
Assay type: biochemical
Details: Table 3; read-out: p38a IC50
readoutLabel: pIC50
Interpret pIC50 as the negative base-10 log of the concentration measured in mol/L.

Sample answers from the record:
compound	pIC50
Nc1nccc(-c2c(-c3ccc(F)cc3)ncn2C2CCCCC2)n1 [PF-670462, reference compound]	7.49
CC1(C)CN(c2ccc3nc(-c4ccc(F)cc4)c(-c4ccncc4)n3n2)CCN1	7.88

Requested read-out: pIC50. Entry: Nc1nccc(-c2c(-c3ccc(F)cc3)ncn2C2CCN(Cc3ccon3)CC2)n1 [PF-5006739, reference compound] 7.13
